Measured on: Aurora-C/INCENP (Homo sapiens, UniProt Q9NQS7+Q9UQB9)
Sequence (Q9UQB9 whole entry): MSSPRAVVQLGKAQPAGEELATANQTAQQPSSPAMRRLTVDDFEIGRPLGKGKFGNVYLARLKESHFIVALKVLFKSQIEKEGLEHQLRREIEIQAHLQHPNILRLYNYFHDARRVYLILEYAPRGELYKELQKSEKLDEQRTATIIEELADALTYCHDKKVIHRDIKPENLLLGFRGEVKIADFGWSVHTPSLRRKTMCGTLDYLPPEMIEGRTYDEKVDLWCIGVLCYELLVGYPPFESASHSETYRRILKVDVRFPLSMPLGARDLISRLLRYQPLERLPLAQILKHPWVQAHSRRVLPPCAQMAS
Sequence (Q9NQS7 whole entry): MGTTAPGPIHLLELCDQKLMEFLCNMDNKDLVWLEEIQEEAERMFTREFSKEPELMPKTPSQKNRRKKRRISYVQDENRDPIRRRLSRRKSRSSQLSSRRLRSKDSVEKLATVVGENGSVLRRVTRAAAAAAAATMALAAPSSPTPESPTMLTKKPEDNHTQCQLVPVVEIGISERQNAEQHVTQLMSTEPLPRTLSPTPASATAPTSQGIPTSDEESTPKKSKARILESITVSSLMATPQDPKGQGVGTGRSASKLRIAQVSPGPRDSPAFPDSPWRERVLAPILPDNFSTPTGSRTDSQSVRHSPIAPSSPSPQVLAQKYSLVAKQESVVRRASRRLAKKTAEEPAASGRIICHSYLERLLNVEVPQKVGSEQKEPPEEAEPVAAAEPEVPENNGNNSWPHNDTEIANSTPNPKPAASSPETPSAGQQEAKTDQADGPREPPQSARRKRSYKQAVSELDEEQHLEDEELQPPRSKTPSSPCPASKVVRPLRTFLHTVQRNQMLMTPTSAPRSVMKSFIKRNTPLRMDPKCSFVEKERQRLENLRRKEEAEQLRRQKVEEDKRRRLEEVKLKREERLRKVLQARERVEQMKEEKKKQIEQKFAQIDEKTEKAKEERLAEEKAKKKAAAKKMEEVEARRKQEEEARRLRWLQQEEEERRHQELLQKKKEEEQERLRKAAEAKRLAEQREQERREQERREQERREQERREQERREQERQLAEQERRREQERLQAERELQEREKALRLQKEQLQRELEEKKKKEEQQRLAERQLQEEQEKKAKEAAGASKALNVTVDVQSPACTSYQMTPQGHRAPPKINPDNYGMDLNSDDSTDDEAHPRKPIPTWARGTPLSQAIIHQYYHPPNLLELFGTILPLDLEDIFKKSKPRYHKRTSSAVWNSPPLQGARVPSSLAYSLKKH
Assay method text: Inhibition of recombinant human N-terminal His6-tagged Aurora-C (35-end residues)/N-terminal GST-tagged INCENP (821-end residues) expressed in baculovirus infected sf21 cells using AKRRRLSSLRA substrate in presence of [gamma33P]ATP after 10 mins by scintillation counting method
Attribute measured: IC50

>  <Given smiles>
CN(C)C(=O)c1cc2cnc(Nc3ccc(NC(=O)CCCCCCC(=O)NO)cc3)nc2n1C1CCCC1

>  <Result>
22 nM

$$$$

----------
Assay method text: Half life in Sprague-Dawley rat at 20 mg/kg, iv administered as single dose by HPLC analysis
Type: ADME, organism-based
Condition details: in vivo
Attribute measured: half-life (h)

>  <Given smiles>
CN(C)C(=O)c1cc2cnc(Nc3ccc(NC(=O)CCCCCCC(=O)NO)cc3)nc2n1C1CCCC1

>  <Attribute measured>
half-life

>  <Uom>
h

>  <Quantitative readout>
10.8

$$$$

----------
Measured on: Serine/threonine-protein kinase TAO2 (Homo sapiens, UniProt Q9UL54)
Sequence (Q9UL54 whole entry): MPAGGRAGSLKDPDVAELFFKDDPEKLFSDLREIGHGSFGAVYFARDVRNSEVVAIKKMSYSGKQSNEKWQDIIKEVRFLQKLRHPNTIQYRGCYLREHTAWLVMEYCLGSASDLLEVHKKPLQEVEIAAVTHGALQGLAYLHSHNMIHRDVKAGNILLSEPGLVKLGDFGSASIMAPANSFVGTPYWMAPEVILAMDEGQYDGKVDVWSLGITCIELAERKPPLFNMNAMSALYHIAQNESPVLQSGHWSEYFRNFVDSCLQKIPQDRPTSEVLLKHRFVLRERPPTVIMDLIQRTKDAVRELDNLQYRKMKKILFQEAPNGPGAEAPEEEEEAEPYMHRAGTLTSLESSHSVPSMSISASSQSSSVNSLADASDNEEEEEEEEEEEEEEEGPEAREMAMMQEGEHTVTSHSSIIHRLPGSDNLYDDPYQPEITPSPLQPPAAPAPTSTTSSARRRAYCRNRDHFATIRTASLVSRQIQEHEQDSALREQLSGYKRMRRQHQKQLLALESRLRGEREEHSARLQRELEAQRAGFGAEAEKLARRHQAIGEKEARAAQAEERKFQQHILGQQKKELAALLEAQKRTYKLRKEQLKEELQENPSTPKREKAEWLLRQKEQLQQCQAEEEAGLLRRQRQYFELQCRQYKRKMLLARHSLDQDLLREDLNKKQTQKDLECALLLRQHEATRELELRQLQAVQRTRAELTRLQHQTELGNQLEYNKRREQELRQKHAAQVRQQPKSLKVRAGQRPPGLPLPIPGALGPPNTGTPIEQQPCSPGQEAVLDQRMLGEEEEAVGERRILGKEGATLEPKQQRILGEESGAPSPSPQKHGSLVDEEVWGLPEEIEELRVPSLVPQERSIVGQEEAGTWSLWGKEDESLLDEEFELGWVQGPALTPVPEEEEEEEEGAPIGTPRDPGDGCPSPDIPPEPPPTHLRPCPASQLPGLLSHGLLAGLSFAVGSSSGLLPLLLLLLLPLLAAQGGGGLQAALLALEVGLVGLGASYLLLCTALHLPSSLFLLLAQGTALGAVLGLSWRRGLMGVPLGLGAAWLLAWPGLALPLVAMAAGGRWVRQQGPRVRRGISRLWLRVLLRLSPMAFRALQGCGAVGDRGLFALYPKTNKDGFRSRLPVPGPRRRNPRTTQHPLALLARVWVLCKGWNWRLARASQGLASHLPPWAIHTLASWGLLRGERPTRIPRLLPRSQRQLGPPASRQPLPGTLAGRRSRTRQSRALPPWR
Assay method text: Inhibition of recombinant human N-terminal His6-tagged TAO2 expressed in sf21 cells

>  <Given smiles>
CN(C)C(=O)c1cc2cnc(Nc3ccc(NC(=O)CCCCCCC(=O)NO)cc3)nc2n1C1CCCC1

>  <Uom>
nM

>  <IC50>
84

$$$$

----------
Assay method text: Half life in Sprague-Dawley rat at 20 mg/kg, po administered as single dose by HPLC analysis
Type: ADME, organism-based
Condition details: in vivo

>  <Given smiles>
CN(C)C(=O)c1cc2cnc(Nc3ccc(NC(=O)CCCCCCC(=O)NO)cc3)nc2n1C1CCCC1

>  <half-life [h]>
14.9

$$$$

----------
Assay method text: Cmax in Sprague-Dawley rat at 20 mg/kg, ip administered as single dose by HPLC analysis
Format: ADME, organism-based
Design: dose 20 mg/kg, route intraperitoneal
Condition details: in vivo
Attribute measured: Cmax (ng/mL)

>  <Given smiles>
CN(C)C(=O)c1cc2cnc(Nc3ccc(NC(=O)CCCCCCC(=O)NO)cc3)nc2n1C1CCCC1

>  <Attribute measured>
Cmax

>  <Quantitative readout>
360

$$$$

----------
Assay method text: AUC (0 to infinity) in Sprague-Dawley rat at 20 mg/kg, ip administered as single dose by HPLC analysis
Type: ADME, organism-based
Design: dose 20 mg/kg, time infinity, route intraperitoneal
Condition details: in vivo
Attribute measured: AUC(0-inf)

>  <Given smiles>
CN(C)C(=O)c1cc2cnc(Nc3ccc(NC(=O)CCCCCCC(=O)NO)cc3)nc2n1C1CCCC1

>  <Attribute measured>
AUC(0-inf)

>  <Result>
2130 ng·h/mL

$$$$

----------
Measured on: High affinity nerve growth factor receptor (Homo sapiens, UniProt P04629)
Sequence (P04629 whole entry): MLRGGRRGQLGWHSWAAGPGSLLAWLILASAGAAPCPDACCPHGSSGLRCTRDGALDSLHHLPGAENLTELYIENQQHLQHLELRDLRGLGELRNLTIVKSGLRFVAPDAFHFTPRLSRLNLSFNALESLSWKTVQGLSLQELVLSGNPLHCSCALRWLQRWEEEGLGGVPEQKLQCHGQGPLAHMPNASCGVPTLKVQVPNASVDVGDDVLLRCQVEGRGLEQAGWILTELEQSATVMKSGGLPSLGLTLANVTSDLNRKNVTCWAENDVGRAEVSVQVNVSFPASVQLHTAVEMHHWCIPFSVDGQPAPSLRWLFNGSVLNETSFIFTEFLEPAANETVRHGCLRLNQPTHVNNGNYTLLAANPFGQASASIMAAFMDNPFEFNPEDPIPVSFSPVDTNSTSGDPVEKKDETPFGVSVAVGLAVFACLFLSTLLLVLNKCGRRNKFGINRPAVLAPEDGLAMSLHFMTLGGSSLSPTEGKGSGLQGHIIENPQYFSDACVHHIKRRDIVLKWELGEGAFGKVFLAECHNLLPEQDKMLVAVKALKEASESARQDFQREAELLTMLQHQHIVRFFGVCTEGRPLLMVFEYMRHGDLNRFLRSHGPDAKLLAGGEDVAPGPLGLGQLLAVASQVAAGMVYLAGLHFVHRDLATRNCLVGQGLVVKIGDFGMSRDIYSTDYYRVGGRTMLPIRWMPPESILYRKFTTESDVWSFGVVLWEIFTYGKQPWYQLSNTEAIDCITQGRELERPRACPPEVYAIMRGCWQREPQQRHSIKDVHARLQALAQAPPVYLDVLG
Assay method text: Inhibition of recombinant human N-terminal His6-tagged TrkA (440-end residues) expressed in baculovirus infected sf21 cells
pIC50: −log10 of the molar value.

>  <Given smiles>
CN(C)C(=O)c1cc2cnc(Nc3ccc(NC(=O)CCCCCCC(=O)NO)cc3)nc2n1C1CCCC1

>  <pIC50>
7.51

$$$$

----------
Assay method text: Lipophilicity, log P of the compound by HPLC based shake flask method
Assay type: physicochemical

>  <Given smiles>
CN(C)C(=O)c1cc2cnc(Nc3ccc(NC(=O)CCCCCCC(=O)NO)cc3)nc2n1C1CCCC1

>  <logP>
2.62

$$$$

----------
Assay method text: MRT (0 to infinity) in Sprague-Dawley rat at 20 mg/kg, po administered as single dose by HPLC analysis
Assay type: ADME, organism-based
Condition details: in vivo

>  <Given smiles>
CN(C)C(=O)c1cc2cnc(Nc3ccc(NC(=O)CCCCCCC(=O)NO)cc3)nc2n1C1CCCC1

>  <Uom>
h

>  <MRT inf>
20.3

$$$$

----------
Assay method text: Cmax in Sprague-Dawley rat at 20 mg/kg, po administered as single dose by HPLC analysis
Type: ADME, organism-based
Set-up: dose 20 mg/kg, route oral
Condition details: in vivo

>  <Given smiles>
CN(C)C(=O)c1cc2cnc(Nc3ccc(NC(=O)CCCCCCC(=O)NO)cc3)nc2n1C1CCCC1

>  <Cmax [ng/mL]>
137

$$$$

----------
Assay method text: Clearance in Sprague-Dawley rat at 20 mg/kg, po administered as single dose by HPLC analysis
Format: ADME, organism-based
Condition details: in vivo

>  <Given smiles>
CN(C)C(=O)c1cc2cnc(Nc3ccc(NC(=O)CCCCCCC(=O)NO)cc3)nc2n1C1CCCC1

>  <CL/F>
20.6 L/h/kg

$$$$

----------
Assay method text: MRT (0 to infinity) in Sprague-Dawley rat at 20 mg/kg, iv administered as single dose by HPLC analysis
Format: ADME, organism-based
Condition details: in vivo
Attribute measured: MRT inf

>  <Given smiles>
CN(C)C(=O)c1cc2cnc(Nc3ccc(NC(=O)CCCCCCC(=O)NO)cc3)nc2n1C1CCCC1

>  <Attribute measured>
MRT inf

>  <Result>
14.1 h

$$$$

----------
Assay method text: Lipophilicity, log D of the compound at pH 7.4 by HPLC based shake flask method
Format: physicochemical
Condition details: buffer

>  <Given smiles>
CN(C)C(=O)c1cc2cnc(Nc3ccc(NC(=O)CCCCCCC(=O)NO)cc3)nc2n1C1CCCC1

>  <logD>
2.02

$$$$

----------
Assay method text: AUC (0 to infinity) in Sprague-Dawley rat at 20 mg/kg, po administered as single dose by HPLC analysis
Format: ADME, organism-based
Parameters: dose 20 mg/kg, time infinity, route oral
Condition details: in vivo

>  <Given smiles>
CN(C)C(=O)c1cc2cnc(Nc3ccc(NC(=O)CCCCCCC(=O)NO)cc3)nc2n1C1CCCC1

>  <Uom>
ng·h/mL

>  <AUC(0-inf)>
1130

$$$$

----------
Assay method text: AUC (0 to infinity) in Sprague-Dawley rat at 20 mg/kg, iv administered as single dose by HPLC analysis
Type: ADME, organism-based
Parameters: dose 20 mg/kg, route intravenous, time infinity
Condition details: in vivo

>  <Given smiles>
CN(C)C(=O)c1cc2cnc(Nc3ccc(NC(=O)CCCCCCC(=O)NO)cc3)nc2n1C1CCCC1

>  <AUC(0-inf) / ng·h/mL>
6160

$$$$

----------
Assay method text: Apparent volume of distribution at steady state in Sprague-Dawley rat at 20 mg/kg, iv administered as single dose by HPLC analysis
Type: ADME, organism-based
Condition details: in vivo, read-out: Vdss(app)

>  <Given smiles>
CN(C)C(=O)c1cc2cnc(Nc3ccc(NC(=O)CCCCCCC(=O)NO)cc3)nc2n1C1CCCC1

>  <Vd [L/kg]>
49

$$$$

----------
Measured on: CDK9/cyclin T1 (Homo sapiens, UniProt P50750)
Sequence (O60563 whole entry): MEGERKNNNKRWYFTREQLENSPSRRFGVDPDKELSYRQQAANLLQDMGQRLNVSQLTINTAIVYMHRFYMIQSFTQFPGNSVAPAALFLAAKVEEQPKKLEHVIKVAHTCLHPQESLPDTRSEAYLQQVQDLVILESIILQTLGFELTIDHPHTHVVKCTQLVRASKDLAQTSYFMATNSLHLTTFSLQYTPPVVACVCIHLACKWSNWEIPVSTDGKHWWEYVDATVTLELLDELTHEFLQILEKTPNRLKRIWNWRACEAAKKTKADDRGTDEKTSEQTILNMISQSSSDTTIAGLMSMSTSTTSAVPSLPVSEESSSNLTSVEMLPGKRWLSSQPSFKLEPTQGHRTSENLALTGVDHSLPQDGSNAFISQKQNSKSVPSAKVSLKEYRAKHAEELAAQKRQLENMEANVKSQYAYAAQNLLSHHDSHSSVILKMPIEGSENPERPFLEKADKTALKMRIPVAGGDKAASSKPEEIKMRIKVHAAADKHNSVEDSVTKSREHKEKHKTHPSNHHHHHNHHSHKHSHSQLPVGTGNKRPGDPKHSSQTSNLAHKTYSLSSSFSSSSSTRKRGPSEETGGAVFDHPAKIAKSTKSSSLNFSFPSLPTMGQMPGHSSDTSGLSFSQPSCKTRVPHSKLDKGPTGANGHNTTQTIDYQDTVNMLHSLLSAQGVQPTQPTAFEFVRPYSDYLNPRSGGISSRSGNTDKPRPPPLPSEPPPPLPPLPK
Sequence (P50750 whole entry): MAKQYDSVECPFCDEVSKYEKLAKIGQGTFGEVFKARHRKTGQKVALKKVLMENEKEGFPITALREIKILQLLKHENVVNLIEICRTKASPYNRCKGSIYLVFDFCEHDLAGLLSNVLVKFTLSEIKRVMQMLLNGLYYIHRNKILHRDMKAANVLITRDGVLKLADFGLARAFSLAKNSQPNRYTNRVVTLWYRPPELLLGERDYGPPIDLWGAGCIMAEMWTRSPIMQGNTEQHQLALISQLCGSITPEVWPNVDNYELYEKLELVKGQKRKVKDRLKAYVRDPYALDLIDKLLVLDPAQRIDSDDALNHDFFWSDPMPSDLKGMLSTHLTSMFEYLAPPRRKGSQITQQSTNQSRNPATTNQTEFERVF
Assay method text: Inhibition of recombinant human full length C-terminal 6His-tagged CDK9/Cyclin-T1 co-expressed in baculovirus infected sf21 cells using PDKtide substrate in presence of [gamma33P]ATP after 10 mins by scintillation counting method
Attribute measured: IC50 (nM)

>  <Given smiles>
CN(C)C(=O)c1cc2cnc(Nc3ccc(NC(=O)CCCCCCC(=O)NO)cc3)nc2n1C1CCCC1

>  <Quantitative readout>
9

$$$$

----------
Known pIC50 of a selection of compounds
Measured on: CDK4/Cyclin D3 (Homo sapiens, UniProt P11802)
Sequence (P11802 whole entry): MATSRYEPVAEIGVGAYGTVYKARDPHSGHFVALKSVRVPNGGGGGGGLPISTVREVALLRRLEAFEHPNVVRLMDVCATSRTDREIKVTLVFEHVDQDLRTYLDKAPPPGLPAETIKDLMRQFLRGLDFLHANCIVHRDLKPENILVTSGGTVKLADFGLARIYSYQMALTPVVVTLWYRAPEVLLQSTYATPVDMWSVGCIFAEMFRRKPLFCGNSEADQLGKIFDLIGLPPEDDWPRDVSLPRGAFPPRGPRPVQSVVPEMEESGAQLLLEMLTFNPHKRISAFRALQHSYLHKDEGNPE
Sequence (P30281 whole entry, further chain): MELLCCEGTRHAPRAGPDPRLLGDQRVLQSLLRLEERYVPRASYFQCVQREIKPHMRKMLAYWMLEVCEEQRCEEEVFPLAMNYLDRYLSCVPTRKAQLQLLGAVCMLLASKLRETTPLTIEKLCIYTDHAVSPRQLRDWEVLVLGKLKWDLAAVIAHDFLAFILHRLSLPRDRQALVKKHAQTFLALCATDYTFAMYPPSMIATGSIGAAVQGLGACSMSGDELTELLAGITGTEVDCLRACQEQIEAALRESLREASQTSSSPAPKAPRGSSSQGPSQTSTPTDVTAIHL
Assay method text: Inhibition of recombinant human full length N-terminal GST-tagged CDK4/Cyclin-D3 co-expressed in baculovirus infected sf21 cells using Rb substrate in presence of [gamma33P]ATP after 10 mins by scintillation counting method
pIC50: −log10 of the molar value.
Attribute measured: pIC50

>  <Given smiles>
COC(=O)CCCCCCC(=O)NCc1ccc(Nc2ncc3cc(C(=O)N(C)C)n(C4CCCC4)c3n2)cc1

>  <Quantitative readout>
7.60

$$$$
>  <Given smiles>
CN(C)C(=O)c1cc2cnc(Nc3ccc(N4CCN(C(=O)CCCCCCC(=O)NO)CC4)cn3)nc2n1C1CCCC1

>  <Quantitative readout>
7.89

$$$$
>  <Given smiles>
COC(=O)CCCCC(=O)Nc1ccc(Nc2ncc3cc(C(=O)N(C)C)n(C4CCCC4)c3n2)cc1

>  <Quantitative readout>
8.32

$$$$
>  <Given smiles>
CCCCCCCC(=O)Nc1ccc(Nc2ncc3cc(C(=O)N(C)C)n(C4CCCC4)c3n2)cc1

>  <Quantitative readout>
7.54

$$$$

----------
Assay method text: Oral bioavailability in Sprague-Dawley rat at 20 mg/kg administered as single dose by HPLC analysis
Format: ADME, organism-based
Condition details: in vivo
Attribute measured: bioavailability (%)

>  <Given smiles>
CN(C)C(=O)c1cc2cnc(Nc3ccc(NC(=O)CCCCCCC(=O)NO)cc3)nc2n1C1CCCC1

>  <Attribute measured>
bioavailability

>  <Quantitative readout>
18.4

$$$$

----------
Assay method text: Aqueous solubility in water at 1 mg using methanesulfonic acid formulation sonicated for 24 hrs and incubated under unstirred condition for 24 hrs by HPLC method
Format: physicochemical
Attribute measured: solubility at 24 h (µg/mL)

>  <Given smiles>
CN(C)C(=O)c1cc2cnc(Nc3ccc(NC(=O)CCCCCCC(=O)NO)cc3)nc2n1C1CCCC1

>  <Quantitative readout>
526

$$$$
